- Tested on: MRSA ATCC 43300
- Test Summary: Antibacterial MIC assay, serial dilution
- Assay type: cell-based, Staphylococcus aureus
- Conditions: Staphylococcus aureus, read-out: MIC MRSA ATCC 43300
Can you tell me MIC for the items I'm about to list?
Answers are plain numbers, in µg/mL.

Could I get MIC for every one of these entries?
1. CN(CC[C@H](N)CC(=O)N[C@H]1C=C[C@H](n2ccc(NC(=O)c3ccc(NC(=O)[C@@](C)(N)CO)cc3)nc2=O)O[C@@H]1C(=O)NCCc1ccccc1)C(=N)N
2. CNc1ccc(C(=O)Nc2ccn([C@H]3C=C[C@H](NC(=O)C[C@@H](N)CCN(C)C(=N)N)[C@@H](C(=O)OC)O3)c(=O)n2)cc1

Marked response:
32
16

Could I get MIC for every one of these entries?
1. CN(CC[C@H](N)CC(=O)N[C@H]1C=C[C@H](n2ccc(N)nc2=O)O[C@@H]1C(N)=O)C(=N)N [Blastimidine A1, P10, reference compound]
2. CN(CC[C@H](N)CC(=O)N[C@H]1C=C[C@H](n2ccc(NC(=O)c3ccc(NC(=O)[C@@](C)(N)CO)cc3)nc2=O)O[C@@H]1C(N)=O)C(=N)N

Marked response:
[32, 128]

###

- Tested on: Enterococcus faecalis ATCC 29212
- Test Summary: Antibacterial MIC assay, serial dilution
- Type: cell-based
- Conditions: CC50 Vero cells / MIC
Readout Label: Selectivity index (CC50/MIC) E. faecalis 29212
One number for each entry.

// solved cases for Selectivity index (CC50/MIC) E. faecalis 29212 follow
CN(CC[C@H](N)CC(=O)N[C@H]1C=C[C@H](n2ccc(N)nc2=O)O[C@@H]1C(=O)O)C(=N)N [Blastimidine C1, blasticidin S]
0.6
CNc1ccc(C(=O)Nc2ccn([C@H]3C=C[C@H](NC(=O)C[C@@H](N)CCN(C)C(=N)N)[C@@H](C(=O)OC)O3)c(=O)n2)cc1 [Blastimidine M3]
13

As a next step, examine the molecule that follows.
Exam item: What measured Selectivity index (CC50/MIC) E. faecalis 29212 is associated with COC(=O)[C@H]1O[C@@H](n2ccc(N)nc2=O)C=C[C@@H]1NC(=O)C[C@@H](N)CCN(C)C(=N)N [Blastimidine M1, blasticidin S methyl ester] on Enterococcus faecalis ATCC 29212?
Marked response: 1.8

###

Can you tell me Selectivity index (CC50/MIC) MRSE 35984 for the items I'm about to list?
- Tested on: Methicillin resistant Staphylococcus epidermidis (MRSE) ATCC 35984 NRS101
- Test Summary: Antibacterial MIC assay, serial dilution
- Type: cell-based
- Conditions: CC50 Vero cells / MIC
Give bare numbers.

// solved cases for Selectivity index (CC50/MIC) MRSE 35984 follow
COC(=O)[C@H]1O[C@@H](n2ccc(NC(=O)c3ccc(NC(C)=O)cc3)nc2=O)C=C[C@@H]1NC(=O)C[C@@H](N)CCN(C)C(=N)N [Blastimidine M4]
3.3
COC(=O)[C@H]1O[C@@H](n2ccc(NC(=O)c3ccc(NC(=O)[C@@](C)(N)CO)cc3)nc2=O)C=C[C@@H]1NC(=O)C[C@@H](N)CCN(C)C(=N)N [Blastimidine M5]
2.3
CN(CC[C@H](N)CC(=O)N[C@H]1C=C[C@H](n2ccc(NC(=O)c3ccc(N)cc3)nc2=O)O[C@@H]1C(N)=O)C(=N)N [Blastimidine A2]
0.5
COC(=O)[C@H]1O[C@@H](n2ccc(NC(=O)c3ccc(N)cc3)nc2=O)C=C[C@@H]1NC(=O)C[C@@H](N)CCN(C)C(=N)N [Blastimidine M2]
7.9
CN(CC[C@H](N)CC(=O)N[C@H]1C=C[C@H](n2ccc(NC(=O)c3ccc(NC(=O)[C@@](C)(N)CO)cc3)nc2=O)O[C@@H]1C(N)=O)C(=N)N [Blastimidine A5]
0.5

Could I get Selectivity index (CC50/MIC) MRSE 35984 for every one of these entries?
1. CC(=O)Nc1ccc(C(=O)Nc2ccn([C@H]3C=C[C@H](NC(=O)C[C@@H](N)CCN(C)C(=N)N)[C@@H](C(N)=O)O3)c(=O)n2)cc1 [Blastimidine A4]
2. CN(CC[C@H](N)CC(=O)N[C@H]1C=C[C@H](n2ccc(N)nc2=O)O[C@@H]1C(N)=O)C(=N)N [Blastimidine A1, P10, reference compound]
3. COC(=O)[C@H]1O[C@@H](n2ccc(N)nc2=O)C=C[C@@H]1NC(=O)C[C@@H](N)CCN(C)C(=N)N [Blastimidine M1, blasticidin S methyl ester]
4. CNc1ccc(C(=O)Nc2ccn([C@H]3C=C[C@H](NC(=O)C[C@@H](N)CCN(C)C(=N)N)[C@@H](C(N)=O)O3)c(=O)n2)cc1 [Blastimidine A3]

Marked response:
1: 1.1; 2: 0.2; 3: 1.8; 4: 1.5

Could I get Selectivity index (CC50/MIC) MRSE 35984 for every one of these entries?
1. CN(CC[C@H](N)CC(=O)N[C@H]1C=C[C@H](n2ccc(N)nc2=O)O[C@@H]1C(=O)NCCc1ccccc1)C(=N)N [Blastimidine P1, blasticidin S phenethylamide]
2. CNc1ccc(C(=O)Nc2ccn([C@H]3C=C[C@H](NC(=O)C[C@@H](N)CCN(C)C(=N)N)[C@@H](C(=O)OC)O3)c(=O)n2)cc1 [Blastimidine M3]

Marked response:
[59, 26]

###

Can you tell me Selectivity index (CC50/MIC) E. faecalis 29212 for the items I'm about to list?
- Test system: Enterococcus faecalis ATCC 29212
- Test Summary: Antibacterial MIC assay, serial dilution
- Type: cell-based
- Conditions: CC50 Vero cells / MIC

// solved cases for Selectivity index (CC50/MIC) E. faecalis 29212 follow
CN(CC[C@H](N)CC(=O)N[C@H]1C=C[C@H](n2ccc(NC(=O)c3ccc(NC(=O)[C@@](C)(N)CO)cc3)nc2=O)O[C@@H]1C(=O)O)C(=N)N
<1.4
CN(CC[C@H](N)CC(=O)N[C@H]1C=C[C@H](n2ccc(N)nc2=O)O[C@@H]1C(=O)NCCc1ccccc1)C(=N)N [Blastimidine P1, blasticidin S phenethylamide]
15

As a next step, examine the compound that follows.
Exam item: # Selectivity index (CC50/MIC) E. faecalis 29212 lookup, item CC(=O)Nc1ccc(C(=O)Nc2ccn([C@H]3C=C[C@H](NC(=O)C[C@@H](N)CCN(C)C(=N)N)[C@@H](C(=O)O)O3)c(=O)n2)cc1
Marked response: <1.6

###

- Test system: Enterococcus faecalis ATCC 29212
- Test Summary: Antibacterial MIC assay, serial dilution
- Assay type: cell-based
- Conditions: CC50 Vero cells / MIC
Readout Label: Selectivity index (CC50/MIC) E. faecalis 29212
Numbers only.

Could I get Selectivity index (CC50/MIC) E. faecalis 29212 for every one of these entries?
1. COC(=O)[C@H]1O[C@@H](n2ccc(NC(=O)c3ccc(N)cc3)nc2=O)C=C[C@@H]1NC(=O)C[C@@H](N)CCN(C)C(=N)N
2. CC(=O)Nc1ccc(C(=O)Nc2ccn([C@H]3C=C[C@H](NC(=O)C[C@@H](N)CCN(C)C(=N)N)[C@@H](C(N)=O)O3)c(=O)n2)cc1
3. CN(CC[C@H](N)CC(=O)N[C@H]1C=C[C@H](n2ccc(N)nc2=O)O[C@@H]1C(N)=O)C(=N)N [Blastimidine A1, P10, reference compound]

Marked response:
16
2.1
0.2

###

- Tested on: Enterococcus faecalis ATCC 29212
- Test Summary: Antibacterial MIC assay, serial dilution
- Format: cell-based
- Conditions: CC50 Vero cells / MIC
Readout Label: Selectivity index (CC50/MIC) E. faecalis 29212
Give bare numbers.

// solved cases for Selectivity index (CC50/MIC) E. faecalis 29212 follow
CN(CC[C@H](N)CC(=O)N[C@H]1C=C[C@H](n2ccc(NC(=O)c3ccc(N)cc3)nc2=O)O[C@@H]1C(N)=O)C(=N)N [Blastimidine A2]
1.0
CNc1ccc(C(=O)Nc2ccn([C@H]3C=C[C@H](NC(=O)C[C@@H](N)CCN(C)C(=N)N)[C@@H](C(N)=O)O3)c(=O)n2)cc1 [Blastimidine A3]
1.5
CN(CC[C@H](N)CC(=O)N[C@H]1C=C[C@H](n2ccc(NC(=O)c3ccc(N)cc3)nc2=O)O[C@@H]1C(=O)O)C(=N)N [Blastimidine C2]
1.0

Exam item: # Selectivity index (CC50/MIC) E. faecalis 29212 lookup, item CNc1ccc(C(=O)Nc2ccn([C@H]3C=C[C@H](NC(=O)C[C@@H](N)CCN(C)C(=N)N)[C@@H](C(=O)O)O3)c(=O)n2)cc1 [Blastimidine C3]
Marked response: 2.2

###

- Test system: S. aureus ΔNorA
- Test Summary: Antibacterial MIC assay, serial dilution
- Format: cell-based, Staphylococcus aureus
- Conditions: CC50 Vero cells / MIC
Readout Label: Selectivity index (CC50/MIC) S. aureus ΔNorA
One number for each entry.

// solved cases for Selectivity index (CC50/MIC) S. aureus ΔNorA follow
COC(=O)[C@H]1O[C@@H](n2ccc(NC(=O)c3ccc(N)cc3)nc2=O)C=C[C@@H]1NC(=O)C[C@@H](N)CCN(C)C(=N)N
5.9
COC(=O)[C@H]1O[C@@H](n2ccc(NC(=O)c3ccc(NC(C)=O)cc3)nc2=O)C=C[C@@H]1NC(=O)C[C@@H](N)CCN(C)C(=N)N
6.6
CN(CC[C@H](N)CC(=O)N[C@H]1C=C[C@H](n2ccc(N)nc2=O)O[C@@H]1C(N)=O)C(=N)N [Blastimidine A1, P10, reference compound]
0.1
COC(=O)[C@H]1O[C@@H](n2ccc(N)nc2=O)C=C[C@@H]1NC(=O)C[C@@H](N)CCN(C)C(=N)N
0.3
CN(CC[C@H](N)CC(=O)N[C@H]1C=C[C@H](n2ccc(N)nc2=O)O[C@@H]1C(=O)NCCc1ccccc1)C(=N)N [Blastimidine P1, blasticidin S phenethylamide]
1.8

Could I get Selectivity index (CC50/MIC) S. aureus ΔNorA for every one of these entries?
1. CN(CC[C@H](N)CC(=O)N[C@H]1C=C[C@H](n2ccc(NC(=O)c3ccc(N)cc3)nc2=O)O[C@@H]1C(N)=O)C(=N)N
2. CNc1ccc(C(=O)Nc2ccn([C@H]3C=C[C@H](NC(=O)C[C@@H](N)CCN(C)C(=N)N)[C@@H](C(N)=O)O3)c(=O)n2)cc1

Marked response:
1. 0.5
2. 1.5
